Values were extracted from ChEMBL document CHEMBL4419174.

ASSAYED SYSTEM: DNA dC->dU-editing enzyme APOBEC-3B (Homo sapiens)
Sequence (Q9UH17 whole entry): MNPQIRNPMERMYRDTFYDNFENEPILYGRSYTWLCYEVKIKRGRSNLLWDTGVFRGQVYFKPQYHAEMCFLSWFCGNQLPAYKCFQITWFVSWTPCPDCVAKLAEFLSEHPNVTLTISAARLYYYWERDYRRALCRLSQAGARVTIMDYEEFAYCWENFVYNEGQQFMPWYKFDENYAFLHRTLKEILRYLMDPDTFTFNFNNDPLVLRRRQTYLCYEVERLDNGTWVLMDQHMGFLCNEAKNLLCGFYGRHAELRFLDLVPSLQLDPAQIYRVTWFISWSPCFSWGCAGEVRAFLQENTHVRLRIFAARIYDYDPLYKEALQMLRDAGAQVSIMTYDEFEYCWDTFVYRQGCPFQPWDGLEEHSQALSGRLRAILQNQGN
TEST SUMMARY: Inhibition of recombinant APOBEC3B (unknown origin) expressed in HEK293 cells assessed as reduction in cytosine deaminase activity using 5'-6-FAM and 3'-TAMRA quench molecule tagged cytosine-containing single-stranded DNA substrate incubated for 2 hrs by fluorescence-based assay
pIC50: −log10 of the molar value.
PARAMETER: pIC50

The examples below pair each entry with its known result.
Supply measured pIC50 of `COc1ccc2[nH]c(=O)cc(C(=O)Nc3nnc(-c4ccncc4)s3)c2c1` in your reply. 4.43

Supply measured pIC50 of `O=C(Nc1nnc(-c2ccncc2)s1)c1cc(=O)[nH]c2ccc([N+](=O)[O-])cc12` in your reply. 4.51

Supply measured pIC50 of `O=C(Nc1nnc(-c2ccncc2)s1)c1ccc(O)nc1` in your reply. 4.52

A: Nc1ccc2[nH]c(=O)cc(C(=O)Nc3nnc(-c4ccncc4)s3)c2c1
B: O=C(Nc1nnc(-c2ccncc2)s1)c1cc(Br)nc2ccccc12
Name the one with the greater pIC50 value, either A or B as given. Write down the label of the entry you select. A
(A: 4.51, B: 4.19)

* * *

ASSAYED SYSTEM: DNA dC->dU-editing enzyme APOBEC-3A (Homo sapiens, UniProt P31941)
Sequence (P31941 whole entry): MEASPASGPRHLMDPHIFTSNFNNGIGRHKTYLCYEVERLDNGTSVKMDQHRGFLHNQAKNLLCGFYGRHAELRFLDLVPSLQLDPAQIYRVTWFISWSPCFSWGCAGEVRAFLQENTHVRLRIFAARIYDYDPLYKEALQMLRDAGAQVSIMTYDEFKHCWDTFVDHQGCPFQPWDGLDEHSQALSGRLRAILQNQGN
TEST SUMMARY: Inhibition of recombinant APOBEC3A (unknown origin) expressed in HEK293 cells assessed as reduction in cytosine deaminase activity using 5'-6-FAM and 3'-TAMRA quench molecule tagged cytosine-containing single-stranded DNA substrate incubated for 2 hrs by fluorescence-based assay
PARAMETER: IC50

The examples below pair each entry with its known result.
Supply measured IC50 of `O=C(Nc1nnc(-c2ccncc2)s1)c1cc(=O)[nH]c2ccc([N+](=O)[O-])cc12` in your reply. > 100 µM

Supply measured IC50 of `O=C(Nc1nnc(-c2ccncc2)s1)c1ccnc(O)c1` in your reply. > 100 µM

Next:
Supply measured IC50 of `O=C(Nc1nnc(-c2ccncc2)s1)c1cc(Cl)nc2ccccc12` in your reply. > 100 µM

Supply measured IC50 of `O=C(Nc1nnc(-c2ccncc2)s1)c1cc(Br)nc2ccccc12` in your reply. 75 µM

Supply measured IC50 of `COc1ccc2[nH]c(=O)cc(C(=O)Nc3nnc(-c4ccncc4)s3)c2c1` in your reply. > 100 µM

Supply measured IC50 of `O=C(O)c1cccc2c1C(=O)N(c1ccccc1)C2` in your reply. 111 µM

* * *

ASSAYED SYSTEM: DNA dC->dU-editing enzyme APOBEC-3G (Homo sapiens, UniProt Q9HC16, C321A)
Sequence (Q9HC16 whole entry C321A): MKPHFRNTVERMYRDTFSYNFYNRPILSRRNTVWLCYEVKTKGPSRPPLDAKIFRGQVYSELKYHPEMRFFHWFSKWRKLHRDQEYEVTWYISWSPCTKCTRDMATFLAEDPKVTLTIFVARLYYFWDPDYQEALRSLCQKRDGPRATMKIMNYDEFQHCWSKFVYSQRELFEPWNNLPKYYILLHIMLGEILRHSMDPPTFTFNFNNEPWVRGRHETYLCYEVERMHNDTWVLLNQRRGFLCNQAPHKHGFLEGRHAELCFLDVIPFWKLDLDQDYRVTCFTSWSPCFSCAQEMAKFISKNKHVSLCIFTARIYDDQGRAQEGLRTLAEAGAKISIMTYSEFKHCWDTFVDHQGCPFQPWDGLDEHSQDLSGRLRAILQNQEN
TEST SUMMARY: Inhibition of recombinant APOBEC3G C321A mutant (unknown origin) expressed in HEK293 cells assessed as reduction in cytosine deaminase activity using 5'-6-FAM and 3'-TAMRA quench molecule tagged cytosine-containing single-stranded DNA substrate incubated for 2 hrs by fluorescence-based assay
PARAMETER: IC50 (µM)

The examples below pair each entry with its known result.
Supply measured IC50 of `O=C(Nc1nnc(-c2ccncc2)s1)c1ccc(O)nc1` in your reply. 31

Supply measured IC50 of `O=C(Nc1nnc(-c2ccncc2)s1)c1cc(=O)[nH]c2ccc([N+](=O)[O-])cc12` in your reply. 23

1: O=C(Nc1nnc(-c2ccncc2)s1)c1cc(Br)nc2ccccc12
2: COc1ccc2[nH]c(=O)cc(C(=O)Nc3nnc(-c4ccncc4)s3)c2c1
3: Nc1ccc2[nH]c(=O)cc(C(=O)Nc3nnc(-c4ccncc4)s3)c2c1
List items by IC50 in falling order. Write out the labels following the order that was asked for. 1, 3, 2

* * *

TEST SUMMARY: Toxicity in human HeLa cells assessed as cell viability at 50 uM incubated for 5 days relative to control
Type: cell-based
ASSAY SETUP: read-out: Activity
PARAMETER: viability at 120 h, 50 µM

Supply measured viability at 120 h, 50 µM of `Cc1ccc(-c2cc(C(=O)Nc3nnc(-c4ccncc4)s3)c3ccccc3n2)o1` in your reply. > 85%

* * *

ASSAYED SYSTEM: DNA dC->dU-editing enzyme APOBEC-3B (Homo sapiens)
TEST SUMMARY: Inhibition of recombinant APOBEC3B (unknown origin) expressed in HEK293 cells assessed as reduction in cytosine deaminase activity using 5'-6-FAM and 3'-TAMRA quench molecule tagged cytosine-containing single-stranded DNA substrate incubated for 2 hrs by fluorescence-based assay
PARAMETER: IC50

The examples below pair each entry with its known result.
Output reported IC50 of the compound `N#Cc1ncnn1C(=O)c1cc(=O)[nH]c2ccccc12` on DNA dC->dU-editing enzyme APOBEC-3B (Homo sapiens). > 100 µM

Output reported IC50 of the compound `O=C(Nc1nnc(-c2ccncc2)s1)c1cc(=O)[nH]c2ccccc12` on DNA dC->dU-editing enzyme APOBEC-3B (Homo sapiens). > 100 µM

Proceed to the following item.
Output reported IC50 of the compound `O=C(Nc1nnc(-c2ccncc2)s1)c1cc(Cl)nc2ccccc12` on DNA dC->dU-editing enzyme APOBEC-3B (Homo sapiens). > 100 µM

* * *

Listing: IC50 of selected molecules
ASSAYED SYSTEM: DNA dC->dU-editing enzyme APOBEC-3G (Homo sapiens, UniProt Q9HC16, C321A)
TEST SUMMARY: Inhibition of recombinant APOBEC3G C321A mutant (unknown origin) expressed in HEK293 cells assessed as reduction in cytosine deaminase activity using 5'-6-FAM and 3'-TAMRA quench molecule tagged cytosine-containing single-stranded DNA substrate incubated for 2 hrs by fluorescence-based assay

The examples below pair each entry with its known result.
Supply measured IC50 of `N#Cc1ncnn1C(=O)c1cc(=O)[nH]c2ccccc12` in your reply. > 100 µM

Supply measured IC50 of `O=C(Nc1nnc(-c2ccncc2)s1)c1cc(=O)[nH]c2ccccc12` in your reply. > 100 µM

Proceed to the following item.
Supply measured IC50 of `O=C(Nc1nnc(-c2ccncc2)s1)c1cc(Cl)nc2ccccc12` in your reply. > 100 µM
